target: AtIPK2α (Arabidopsis thaliana, UniProt Q9LY23); construct: full-length CDS in pET28b, N-terminal His8-MBP-TEV, E. coli BL21 (RIL); tag removed by TEV for ITC, His8-MBP fusion for kinase assays; assay: isothermal titration calorimetry
Sequence (Q9LY23 whole entry, the tested form may be a part): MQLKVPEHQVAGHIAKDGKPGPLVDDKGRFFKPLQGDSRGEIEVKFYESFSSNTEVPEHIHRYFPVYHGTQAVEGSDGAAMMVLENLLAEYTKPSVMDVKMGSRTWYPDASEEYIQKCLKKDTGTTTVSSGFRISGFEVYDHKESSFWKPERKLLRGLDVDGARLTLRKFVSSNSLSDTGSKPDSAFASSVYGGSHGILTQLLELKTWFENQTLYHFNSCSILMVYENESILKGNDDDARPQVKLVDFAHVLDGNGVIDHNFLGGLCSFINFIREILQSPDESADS
measure_name: Kd

>>> print(df.to_string())
                                   compound                              assay_target  measure_name  measurement
0  O=P(O)(O)O[C@H]1[C@H](OP(=O)(O)O)[C@@H](OP(=O)(O)O)[C@H](OP(=O)(O)O)[C@@H](OP(=O)(O)O)[C@H]1OP(=O)(O)O [InsP6]  AtIPK2α (Arabidopsis thaliana, UniProt Q9LY23)            Kd        ~2 µM

Next item in the queue.
IN: Please give the measured Kd for this compound: O=P(O)(O)O[C@@H]1[C@H](O)[C@H](O)[C@@H](OP(=O)(O)O)[C@H](OP(=O)(O)O)[C@H]1O [Ins(1,4,5)P3]
OUT: ~7 µM
